The entries below are paired with their reported scaled log2 fold change.
B1: library; numbered along this chain (parent)
chain: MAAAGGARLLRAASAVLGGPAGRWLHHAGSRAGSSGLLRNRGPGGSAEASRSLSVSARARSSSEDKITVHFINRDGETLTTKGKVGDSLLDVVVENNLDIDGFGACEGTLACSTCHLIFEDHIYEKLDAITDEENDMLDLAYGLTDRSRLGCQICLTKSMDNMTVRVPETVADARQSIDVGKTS

variants of: B1; test: scaled log2 fold change in cell abundance, elesclomol vs control (0 = silent mean, 1 = nonsense mean) (scaled log2 ratio); higher = higher viability under elesclomol (loss of FDX1 cuproptosis function); conditions: with HEK293T FDX1 KO; elesclomol 40 nM; glucose 10 mM; 11 days;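 further: variant abundance is its share of total variant reads in each endpoint sample, from next-generation sequencing of the integrated ORF PCR-amplified out of genomic DNA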

Sample answers from the record:
{"columns": ["VARIANT ID", "scaled log2 fold change"],
 "data": [
  ["L79I", -0.761],
  ["F71C", 0.0168],
  ["S52Q", 1.17],
  ["V165Y", 1.38],
  ["F119S", 0.993]
]}

Q: What measured scaled log2 fold change goes with A47E ?
Ans: 0.694

Q: And T170L ?
Ans: -0.244

Q: And T81M ?
Ans: 0.26

Q: And G102Q ?
Ans: 0.76

Q: And L89Y ?
Ans: 0.223

Q: And T81G ?
Ans: -1.09

Q: And G6M ?
Ans: -0.651

Q: And T157G ?
Ans: 0.895

Q: And S184D ?
Ans: 0.845

Q: And L150I ?
Ans: -0.337

Q: And V16N ?
Ans: -0.143

Q: And T131F ?
Ans: 0.443

Q: And D91V ?
Ans: 0.747

Q: And H27G ?
Ans: -0.171

Q: And C115I ?
Ans: 0.907

Q: And L110P ?
Ans: -0.14

Q: And A13Y ?
Ans: 0.259
